# Assay target: HLA B*1501 (Homo sapiens, UniProt P01889, A329T/A93T/A95T/C349S/D201E/D98Y/E187L/E204Q/E69M/E70A/K202T/N87E/Q94N/R155S/R180W/S121R/S35A/S48A/V306I/V36M/Y140S/Y91S)
# Experiment: biochemical
# Assay type: binding
Threshold 0.5. Normalized average relative binding affinity(ARB) below it: True. Normalized average relative binding affinity(ARB) at it or above: False.

Residue codes | Class
XXXRXXXXX [3064.0075] | True
XXXXXXXGX [3064.0146] | True
XXXQXXXXX [3064.0074] | False
XXXXXHXXX [3064.0107] | True
XXXXFXXXX [3064.0085] | False
XXXXNXXXX [3064.0092] | False
XXXXXVXXX [3064.0118] | True
XXXMXXXXX [3064.0071] | False
XXXXXXXAX [3064.0141] | True
XXXSXXXXX [3064.0076] | False
XXXXMXXXX [3064.0091] | True
XXXXXXXNX [3064.0152] | True
XXXXXXXRX [3064.0155] | True
